Tested on: HeLa MKYP cells
Test: Toxicity / cell death measured by DAPI staining (take-up)
Type: cell-based
Settings: Table 3 Supplement B; 25 uM compound, 1 uM FO
Description: H2O2 treatment was performed as a control for cell death as measured by DAPI staining. Briefly, HeLa MKYP cells were plated at 10,000 cells/well in 96 well plates along with compounds at various concentrations. Following 16 hrs of incubation, cells were treated with 1 uM FCCP/oligomycin for 6 hours, then analyzed via FACS for the presence of mitochondria in lysosomes (as determined by an emissions spectrum shift from the pH-sensitive mtKeima tag).
Lab note: compare Max cell death at 25 uM compound, 1 uM FO with 10%, writing Y if less and N if equal or more.

// known answers, use as guide
CC(=O)N1CCC(Nc2ncnc3[nH]c(C(F)(F)F)cc23)c2ccccc21 (stereo not drawn)
Y
O[C@H]1Cc2ccccc2[C@@H]1Nc1ncnc2[nH]c(C(F)(F)F)cc12
N
Fc1ccc2c(c1)CCCC2Nc1ncnc2[nH]c(C(F)(F)F)cc12 (stereo not drawn)
N
CO[C@@H]1CCc2ccccc2[C@H]1Nc1ncnc2[nH]c(C(F)(F)F)cc12
N
CC[C@@H]1CCc2ccccc2[C@@H]1Nc1ncnc2[nH]c(C(F)(F)F)cc12
Y

Now look at this one.
Exam item: Dear colleague, could you confirm whether Max cell death at 25 uM compound, 1 uM FO of N#Cc1cccc2c1CCCC2Nc1ncnc2[nH]c(C(F)(F)F)cc12 (stereo not drawn) falls below 10%? Thanks.
Marked response: N
